Just for reference, ChEMBL document CHEMBL1201862 is where these values come from.

# System: UO-31
# test: NCI tumour cell line growth inhibition, 48 h
Active and inactive are the calls of the source. Rule as the data show it: active = GI50 up to about 1.1 µM and inactive = higher.

{"compound": "CCOc1ccccc1Nc1nc(C)c(C(=O)CC(=O)C(=O)Nc2ccccc2)s1", "target_system": "UO-31", "GI50": "32.2 µM (inactive)"}
{"compound": "COCCOCOc1ccc(OCc2ccccc2)cc1", "target_system": "UO-31", "GI50": "> 100 µM (inactive)"}
{"compound": "N#CC(C#N)=C1NC(=O)CC(=O)N1", "target_system": "UO-31", "GI50": "> 100 µM (inactive)"}
{"compound": "CC1(C)C2CC(=O)C1(C)C(OCc1ccccc1)C2 (stereo unspecified)", "target_system": "UO-31", "GI50": "62.7 µM (inactive)"}
{"compound": "NNC(=O)N/N=C1\\CNC(=O)C(=O)C1c1nc2ccccc2s1 (stereo unspecified)", "target_system": "UO-31", "GI50": "> 100 µM (inactive)"}
{"compound": "Nc1nc(N)c(C2=CCN(Cc3ccccc3)CC2)c(=O)[nH]1", "target_system": "UO-31", "GI50": "> 100 µM (inactive)"}
{"compound": "C=C(C)[C@@H](C(=O)OC)N1C(=O)c2ccccc2C1=O", "target_system": "UO-31", "GI50": "> 100 µM (inactive)"}
{"compound": "Cc1ccc(S(=O)(=O)OC(C=O)C(O)C(O)COC(c2ccccc2)(c2ccccc2)c2ccccc2)cc1 (stereo unspecified)", "target_system": "UO-31", "GI50": "16.8 µM (inactive)"}
{"compound": "Cc1nn(-c2ccccc2)c(-c2ccccc2[N+](=O)[O-])c1CC#N", "target_system": "UO-31", "GI50": "82.2 µM (inactive)"}
{"compound": "C[Si]12OCCCN(CCO1)CCO2", "target_system": "UO-31", "GI50": "> 100 µM (inactive)"}
{"compound": "C[C@]12CC[C@H]3[C@@H](CC=C4C[C@@H](O)CC[C@@]43C)[C@@H]1C/C(=C/c1ccccc1)[C@@H]2O", "target_system": "UO-31", "GI50": "18.1 µM (inactive)"}
